Known Ki of a selection of compounds
Target: Adenosine A2b receptor (Homo sapiens)
Construct: expressed in transfected cells; host or cells: CHO cell membranes
Sequence (P29275 1-332): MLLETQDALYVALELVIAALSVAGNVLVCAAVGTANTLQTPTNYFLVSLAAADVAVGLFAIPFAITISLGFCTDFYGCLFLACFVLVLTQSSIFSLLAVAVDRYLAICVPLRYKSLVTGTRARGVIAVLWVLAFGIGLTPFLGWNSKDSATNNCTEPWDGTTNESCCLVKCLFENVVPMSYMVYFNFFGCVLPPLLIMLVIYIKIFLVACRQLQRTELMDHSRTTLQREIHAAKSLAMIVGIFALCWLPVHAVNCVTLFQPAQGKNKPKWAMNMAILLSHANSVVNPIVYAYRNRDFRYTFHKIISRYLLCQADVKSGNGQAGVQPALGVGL
Test: Adenosine receptor TR-FRET binding assay, A2b
Settings: Table 9, further testing; displacement of 30 nM CA200645, CHO cell membranes
The answer consists of two parts: a number and, after it, its unit.

Nc1nc(-c2ccco2)ncc1C(=O)NCc1ncccc1C(F)(F)F    2.35 µM
Nc1nc(-c2cccc(F)c2)ncc1C(=O)NCc1c(F)cccc1F    0.138 µM
Nc1nc(-c2ccco2)ncc1C(=O)NCc1ccccc1C(F)F    1.33 µM
COc1nc(-c2ccco2)nc(N)c1C(=O)NCc1ncccc1C    0.231 µM
CCOc1cccnc1CNC(=O)c1cnc(-c2cccc(F)c2)nc1N    0.679 µM

Name the recorded Ki for `Cc1cccc(CNC(=O)c2cnc(-c3ccco3)nc2N)c1` .
1.41 µM

Lookup `Nc1nc(-c2ccco2)ncc1C(=O)NCc1ccc(F)cc1`
6.63 µM

Lookup `Nc1nc(-c2cccc(F)c2)ncc1C(=O)NCc1ncccc1Cl`
0.536 µM

Lookup `Nc1nc(-c2cccc(F)c2)ncc1C(=O)NCc1cccc2cccnc12`
0.415 µM
